- run-description: Interaction with liposome cell membrane models
- Format: in vitro ADME
- details: 37 °C
Property: Affinity for a Model Lipid Bilayer, % ratio of liposome-bound EDA analogue; scope: individual compounds
Give the number; % is assumed, so skip it.

Would you please look over these solved cases?
compound: COC(=O)c1ccc(-n2c(=O)cc(C)n2C(=O)OC(C)(C)C)cc1
unit-info: %
val: 77

compound: CC1=NN(c2ccc(C(=O)O)cc2)C(=O)C1
unit-info: %
val: 45

// sample "COC(=O)c1ccc(N2N=C(C)CC2=O)cc1" , its Affinity for a Model Lipid Bilayer, % ratio of liposome-bound EDA analogue was 71

// sample CC1=NN(c2ccccc2)C(=O)C1 [Compound 1, edaravone, reference compound] , its Affinity for a Model Lipid Bilayer, % ratio of liposome-bound EDA analogue was 53
